Target: AR-full length (AR-FL) (Homo sapiens, UniProt P10275, T878A)
Sequence (P10275 1-920 T878A): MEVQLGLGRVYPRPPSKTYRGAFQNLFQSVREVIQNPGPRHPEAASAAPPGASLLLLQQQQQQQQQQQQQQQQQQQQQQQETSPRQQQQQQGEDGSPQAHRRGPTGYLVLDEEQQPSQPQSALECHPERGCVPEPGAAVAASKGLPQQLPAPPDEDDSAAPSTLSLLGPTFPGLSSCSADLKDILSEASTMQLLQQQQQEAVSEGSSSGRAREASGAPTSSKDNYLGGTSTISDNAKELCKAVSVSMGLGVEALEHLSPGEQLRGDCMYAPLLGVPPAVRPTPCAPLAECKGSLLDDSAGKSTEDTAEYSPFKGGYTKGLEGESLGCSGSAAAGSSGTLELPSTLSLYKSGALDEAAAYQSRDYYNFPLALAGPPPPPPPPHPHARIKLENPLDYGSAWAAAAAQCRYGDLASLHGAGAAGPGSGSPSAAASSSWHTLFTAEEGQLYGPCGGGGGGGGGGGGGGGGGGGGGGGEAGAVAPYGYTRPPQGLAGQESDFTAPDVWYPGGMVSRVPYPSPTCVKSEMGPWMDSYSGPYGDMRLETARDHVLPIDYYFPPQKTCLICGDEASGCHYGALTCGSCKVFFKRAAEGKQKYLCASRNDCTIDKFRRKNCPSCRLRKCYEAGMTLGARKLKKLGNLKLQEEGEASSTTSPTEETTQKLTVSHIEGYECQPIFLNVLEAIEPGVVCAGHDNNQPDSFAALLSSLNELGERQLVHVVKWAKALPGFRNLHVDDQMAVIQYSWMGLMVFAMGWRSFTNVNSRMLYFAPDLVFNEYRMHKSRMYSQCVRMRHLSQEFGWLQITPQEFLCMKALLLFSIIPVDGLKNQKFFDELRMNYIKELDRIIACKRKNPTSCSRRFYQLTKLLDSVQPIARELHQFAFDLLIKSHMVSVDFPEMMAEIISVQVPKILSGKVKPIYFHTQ
Assay: AR downregulation in LNCaP95 cells (automated Western, Wes)
Conditions: read-out: AR Downregulation IC50; LNCaP95, 24 h treatment
MEASURED_ENDPOINT: DC50 (nM)
Numbers only; they are read as nM.

>>> recorded_number("O=C(Nc1ccc(C(F)(F)F)c(C(F)(F)F)c1)c1cc(F)c(F)cc1O")
498

Lab note: measured DC50 of O=C(Nc1ccc(C(F)(F)F)c(C(F)(F)F)c1)c1cc(F)ccc1O was 551

The reported DC50 of the molecule O=C(Nc1ccc(C(F)(F)F)c(C(F)(F)F)c1)c1cc(Cl)ccc1O was 463

Lab note: N#Cc1ccc(NC(=O)c2cc(Cl)ccc2O)cc1C(F)(F)F gave DC50 of 781

---

Target: AR-V7 (Homo sapiens, UniProt P10275)
Test: AR-V7 downregulation in 22RV1 cells (automated Western, Wes)
Settings: read-out: AR-V7 Downregulation IC50; 22RV1, 24 h treatment
Measured DC50 accompanies every entry in the list below.
Return type: number; implicit unit nM.

// below: answered compounds
>>> recorded_number("O=C(Nc1ccc(C(F)(F)F)c(C(F)(F)F)c1)c1cc(F)ccc1O")
2860
>>> recorded_number("N#Cc1ccc(NC(=O)c2cc(Cl)ccc2O)cc1C(F)(F)F")
354

Summary line: O=C(Nc1ccc(C(F)(F)F)c(C(F)(F)F)c1)c1cc(Cl)ccc1O , AR-V7 (Homo sapiens, UniProt P10275), reported DC50 = 4280
